- system-tested: T1, MBP-fused PDZ domain 1 of PARD3B (human, UniProt Q8TEW8 201-289)
- T1 sequence (looked up): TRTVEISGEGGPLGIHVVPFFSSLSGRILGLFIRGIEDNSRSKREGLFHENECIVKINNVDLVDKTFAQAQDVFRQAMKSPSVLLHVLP
- protocol-notes: fluorescence polarisation
Where no end group is shown, it is not given here.
quantity-kind: Kd (µM)

RSK1 683-735 peptide, unphosphorylated (peptide, UniProt Q15418 683-735, looked up) peptide: QSQLSHQDLQLVKGAMAATYSALNSSKPTPQLKPIESSILAQRRVRKLPSTTL	45
RSK1 683-735 peptide, phosphorylated (peptide, UniProt Q15418 683-735, looked up, also: monophosphorylated, site not given here) peptide: QSQLSHQDLQLVKGAMAATYSALNSSKPTPQLKPIESSILAQRRVRKLPSTTL	31
